Molecular target: CYP1A2 (Homo sapiens, UniProt P05177)
Sequence (P05177 whole entry): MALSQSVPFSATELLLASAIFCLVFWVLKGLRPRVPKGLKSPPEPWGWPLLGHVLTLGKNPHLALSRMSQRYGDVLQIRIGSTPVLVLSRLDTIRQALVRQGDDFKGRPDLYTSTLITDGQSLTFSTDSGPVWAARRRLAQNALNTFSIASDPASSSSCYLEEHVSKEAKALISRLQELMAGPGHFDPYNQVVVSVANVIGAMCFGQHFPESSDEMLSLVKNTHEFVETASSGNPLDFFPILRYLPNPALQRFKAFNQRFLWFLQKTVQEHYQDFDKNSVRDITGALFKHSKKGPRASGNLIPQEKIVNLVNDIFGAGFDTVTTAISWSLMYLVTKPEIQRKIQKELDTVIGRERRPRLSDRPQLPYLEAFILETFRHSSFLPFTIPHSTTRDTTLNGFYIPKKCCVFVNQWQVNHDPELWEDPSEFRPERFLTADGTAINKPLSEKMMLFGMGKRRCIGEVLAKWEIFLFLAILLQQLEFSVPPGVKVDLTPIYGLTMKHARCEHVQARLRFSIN
Assay: Human liver microsomal cytochrome P450 inhibition assay, Protocol B
Type: in vitro ADME
Conditions: liver microsomes, pH 7.4, probe resorufin, at 30 μM, solvent condition B (0.30% DMSO+0.68% acetonitrile)
observed-property: inhibition at 10 min, 30 µM

Provide measured inhibition at 10 min, 30 µM value, entry: `CC(=O)c1ccc(C2=NCc3ccc(Cl)cc3-n3cccc32)cc1`
25 to 35%

----------
Test system: Microsporum canis B68128
Assay: Antifungal activity in vitro (resazurin susceptibility screen), Inf. B
Type: cell-based
Settings: Microsporum canis B68128; 27 °C, 9 days, resa time 24 hours
# key: entry, value: Inf. B pIC50

Solved entries (count: 5):
CC(O)c1ccc(C2NCc3c(ccc(Cl)c3Cl)-n3cccc32)cc1.Cl (centres unmarked) [Compound 2]; 4.7
CC(=O)c1ccc(C2NCc3c(Cl)cc(Cl)cc3-n3cccc32)cc1 (centres unmarked) [Compound 11]; 6.0
CC(=O)c1ccc(C2NCc3c(ccc(Cl)c3Cl)-n3cccc32)cc1.Cl (centres unmarked) [Compound 9]; 5.6
Cl.OCCc1ccc(C2NCc3c(ccc(Cl)c3Cl)-n3cccc32)cc1 (centres unmarked) [Compound 37]; <4.2
CC(=O)c1ccc(C2NCc3c(Cl)cc(Cl)cc3-n3cccc32)cc1.Cl (centres unmarked) [Compound 12]; 4.9

Provide measured Inf. B pIC50 value, entry: CS(=O)(=O)c1cccc(C2=NCc3c(Cl)cccc3-n3cccc32)c1 [Compound 27]
5.2

Provide measured Inf. B pIC50 value, entry: Br.CC(=O)c1ccc(C2NCc3c(Cl)cccc3-n3cccc32)cc1 (centres unmarked) [Compound 6]
6.2

Provide measured Inf. B pIC50 value, entry: CC(=O)c1cc(C2NCc3c(Cl)cccc3-n3cccc32)ccc1F.Cl (centres unmarked) [Compound 7]
5.1

----------
Biological target: CYP2D6 (Homo sapiens)
Sequence (P10635 whole entry): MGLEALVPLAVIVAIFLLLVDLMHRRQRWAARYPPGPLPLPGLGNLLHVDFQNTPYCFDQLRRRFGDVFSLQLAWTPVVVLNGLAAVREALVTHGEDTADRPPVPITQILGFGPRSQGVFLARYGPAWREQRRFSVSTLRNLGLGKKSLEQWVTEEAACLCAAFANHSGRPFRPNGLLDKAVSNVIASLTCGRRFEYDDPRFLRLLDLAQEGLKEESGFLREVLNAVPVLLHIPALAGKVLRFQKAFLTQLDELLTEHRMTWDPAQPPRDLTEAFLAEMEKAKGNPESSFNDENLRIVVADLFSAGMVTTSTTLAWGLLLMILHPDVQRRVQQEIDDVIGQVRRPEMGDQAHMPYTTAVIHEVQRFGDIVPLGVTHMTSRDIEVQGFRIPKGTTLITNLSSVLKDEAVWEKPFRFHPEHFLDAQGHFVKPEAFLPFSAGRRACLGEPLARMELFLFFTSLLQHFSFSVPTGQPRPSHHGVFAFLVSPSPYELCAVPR
Assay: Cytochrome P450 inhibition, Protocol A, cDNA expressed proteins, fluorogenic substrate
Type: in vitro ADME
Settings: % inhibition at 10 μM; substrate AMMC; cDNA expressed protein
Tick Yes if hCYP2D6_AMMC_Pct_Inh is 20% or greater. Tick No if hCYP2D6_AMMC_Pct_Inh is less than 20%.

See these solved cases before continuing.
CCc1ccc(C2=NCc3c(Cl)cccc3-n3cccc32)cc1 [drawing 89]; Yes
CC(=O)c1ccc(C2=NCc3c(ccc(Cl)c3Cl)-n3cccc32)cc1.Cl; Yes
CC(=O)c1ccc(C2=NCc3c(F)cc(F)cc3-n3cccc32)cc1; No
CC(=O)c1ccc(C2=NCc3cc(Cl)cc(Cl)c3-n3cccc32)cc1; Yes
CCc1ccc(C2=NCc3ccc(Cl)cc3-n3cccc32)cc1; Yes

Item `CC(=O)c1cc(C2=NCc3c(Cl)cccc3-n3cccc32)ccc1F` with hCYP2D6_AMMC_Pct_Inh of 20% or above?
Yes

Item `CC(=O)c1ccc(C2=NCc3c(Cl)ccc(Cl)c3-n3cccc32)cc1` with hCYP2D6_AMMC_Pct_Inh of 20% or above?
No

Item `CC(=O)c1cc(C2=NCc3c(Cl)cc(Cl)cc3-n3cccc32)ccc1F` with hCYP2D6_AMMC_Pct_Inh of 20% or above?
No

----------
Target: CYP3A4 (Homo sapiens)
Sequence (P08684 whole entry): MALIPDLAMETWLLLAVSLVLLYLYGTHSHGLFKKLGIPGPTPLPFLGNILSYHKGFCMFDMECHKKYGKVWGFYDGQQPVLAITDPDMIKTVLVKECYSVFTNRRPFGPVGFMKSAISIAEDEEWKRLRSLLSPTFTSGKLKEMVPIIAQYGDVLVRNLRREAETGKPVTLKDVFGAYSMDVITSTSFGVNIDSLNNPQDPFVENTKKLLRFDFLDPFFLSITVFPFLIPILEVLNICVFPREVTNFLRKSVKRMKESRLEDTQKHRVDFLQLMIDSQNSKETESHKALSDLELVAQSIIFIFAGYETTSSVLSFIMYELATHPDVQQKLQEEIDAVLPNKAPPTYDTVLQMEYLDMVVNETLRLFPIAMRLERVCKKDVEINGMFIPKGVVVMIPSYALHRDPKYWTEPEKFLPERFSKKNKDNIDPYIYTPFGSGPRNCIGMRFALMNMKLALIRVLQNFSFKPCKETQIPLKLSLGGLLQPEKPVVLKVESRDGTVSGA
Experiment: Cytochrome P450 inhibition, Protocol A, cDNA expressed proteins, fluorogenic substrates
Assay type: in vitro ADME
Conditions: % inhibition at 10 μM; substrate BFC; cDNA expressed protein
# key: entry, value: hCYP3A4_BFC_Pct_Inh
Respond numerically; units are % and should not be typed.

Solved entries (count: 9):
CS(=O)(=O)c1ccc(C2=NCc3c(Cl)cccc3-n3cccc32)cc1 [drawing 90]; 5
CC(=O)c1cc(C2=NCc3c(Cl)cccc3-n3cccc32)ccc1F; 26
CC(=O)c1ccc(C2=NCc3ccc(Cl)cc3-n3cccc32)cc1 [drawing 86]; 7
CC(=O)c1ccc(C2=NCc3c(Cl)cc(Cl)cc3-n3cccc32)cc1; 39
CC(=O)c1cc(C2=NCc3c(Cl)cc(Cl)cc3-n3cccc32)ccc1F; 51
CC(=O)c1ccc(C2=NCc3c(F)cccc3-n3cccc32)cc1; 1
CC(=O)c1ccc(C2=NCc3c(ccc(Cl)c3Cl)-n3cccc32)cc1.Cl; 0
CC(=O)c1cccc(C2=NCc3c(Cl)cccc3-n3cccc32)c1; 29
CC(=O)c1ccc(C2=NCc3cc(Cl)cc(Cl)c3-n3cccc32)cc1; 33

Now consider a different molecule.
Provide measured hCYP3A4_BFC_Pct_Inh value, entry: `CC(=O)c1ccc(C2=NCc3c(F)cc(F)cc3-n3cccc32)cc1`
3
